B1: library; a variant is named by its letters at N, in order (parent)
chain: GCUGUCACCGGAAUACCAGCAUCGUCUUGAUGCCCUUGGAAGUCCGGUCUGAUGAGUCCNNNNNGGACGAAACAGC

- Variants of: B1
- Assay Info: normalized RNA/DNA level with ligand (relative to sTRSVctl = 100) (log10 (% of sTRSVctl)); higher = less ribozyme self-cleavage, higher mRNA level
- Condition Details: ligand concentration (+) RNA-Seq: 5 mM, HEK293T, reporter: mCherry (pCS4076), ligand present: yes
Observed Property: normalized RNA/DNA level with ligand (log10)
Answers are plain numbers.

1. ACCGC : 2.06
2. AUGGA : 1.94
3. CGAGC : 2.01
4. CAAUU : 2.02
5. UUUCC : 1.99

Each of the following entries comes with a recorded value; kindly state normalized RNA/DNA level with ligand (log10) for each.
1. AUAGU
2. AUGAA
3. AUUUA
4. CAAAA
5. AUAAU
6. AAUUC
7. UAAAU
8. AGCAC

[2.04, 1.94, 2, 1.95, 2, 1.98, 1.98, 2.08]

Each of the following entries comes with a recorded value; kindly state normalized RNA/DNA level with ligand (log10) for each.
1. UAAAC
2. UACGC
3. UAAUC
4. CAGUC
5. AGCCG
6. AAUGG

1: 1.98; 2: 2.01; 3: 1.9; 4: 1.94; 5: 1.99; 6: 2.06
